Would you mind telling me the reported solubility of each entry?
- Test Name: Comparative test of solubility in water (Britton-Robinson buffer)
- Type: physicochemical
- Experimental Parameters: aqueous buffer; pH 9; Britton-Robinson buffer (ion strength of 0.3) at 25° C.

Memo: Nc1ncccc1-c1cc(Cc2ccc(OCc3ccccn3)cc2)no1 [Reference Example 1] , reported solubility: < 0.1 mg/mL

Briefly, solubility measured for Nc1ncccc1-c1cc(Cc2ccc(OCc3cccc[n+]3COP(=O)([O-])O)cc2)no1 [Example 1, mono-trifluoroacetate] : > 70 mg/mL
